The values you see were collected from patent US20070255062A1.

Assay: Estimation of plasma half-life
Type: in vivo
Settings: rat, typically determined following intravenous administration, semilogarithmic plot, read-out: t½ (half life in plasma) (converted)
assay-readout: half-life
Express your answer as a number followed by its unit.

Consider the compound shown here: COC[C@H](C)Oc1cc(Oc2cccc(C)c2)cc(C(=O)Nc2ccc(C(=O)O)cn2)c1 What is its recorded half-life?
384 min

---

Experiment: Plasma protein binding by equilibrium dialysis
Assay type: in vitro ADME
Settings: rat, 18 hours at 37° C., plasma vs isotonic phosphate buffer pH 7.4, read-out: % free in plasma
assay-readout: fraction unbound at 18 h, 20 μM

Consider the molecule shown here: COC[C@H](C)Oc1cc(Oc2cccc(C)c2)cc(C(=O)Nc2ccc(C(=O)O)cn2)c1 [Example 1] What is its recorded fraction unbound at 18 h, 20 μM?
0.0076

---

Molecular target: glucokinase (GLK) (Homo sapiens, UniProt P35557)
Construct: 6-His (N)
Sequence (P35557 1-466 isoform P35557-2): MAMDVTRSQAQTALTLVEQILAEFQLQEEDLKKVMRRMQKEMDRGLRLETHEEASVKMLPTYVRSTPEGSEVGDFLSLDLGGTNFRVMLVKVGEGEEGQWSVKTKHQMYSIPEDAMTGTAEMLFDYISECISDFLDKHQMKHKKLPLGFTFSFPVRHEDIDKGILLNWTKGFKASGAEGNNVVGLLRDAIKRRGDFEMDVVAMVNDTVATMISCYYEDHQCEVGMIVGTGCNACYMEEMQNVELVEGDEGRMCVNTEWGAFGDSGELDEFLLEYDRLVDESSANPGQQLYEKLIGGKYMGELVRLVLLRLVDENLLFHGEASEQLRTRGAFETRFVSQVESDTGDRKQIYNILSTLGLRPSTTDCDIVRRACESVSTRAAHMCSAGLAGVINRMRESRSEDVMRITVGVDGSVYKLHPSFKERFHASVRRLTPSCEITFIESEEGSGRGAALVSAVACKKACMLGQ
Assay: Enzymatic activity of GLK (G-6-P dehydrogenase, NADP/NADPH coupled assay), activation by compounds
Details: read-out: EC50 (activating activity for glucokinase)
Experimental: (1) Enzymatic activity of GLK may be measured by incubating GLK, ATP and glucose. The rate of product formation may be determined by coupling the assay to a G-6-P dehydrogenase, NADP/NADPH system and measuring the linear increase in optical density at 340 nm (atschinsky et al 1993). Activation of GLK by compounds can be assessed using this assay in the presence or absence of GLKRP (GLK regulatory protein) as described in Brocklehurst et al (Diabetes 2004, 53, 535-541). […]
assay-readout: pEC50
Expect pEC50 as a plain number equal to -log10 of the molar concentration.

What reported pEC50 corresponds to COC[C@H](C)Oc1cc(Oc2cccc(C)c2)cc(C(=O)Nc2ccc(C(=O)O)cn2)c1 on glucokinase (GLK) (Homo sapiens, UniProt P35557)?
6.96
